Read-out: CD69, CD69 (gene 969)
METHOD_NOTES: BSK_SAg_CD69: BioMAP Diversity Plus: SAg Assay for CD69 Biomarker Activity (AID 2283089)
CONDITIONS_USED: primary human HUVEC with PBMC; actives raise or lower the signal
Calls of active or inactive are those of the source. The calls were made as follows: active = hit-call score of the fitted dose curve at least 0.9, where 1 is the maximum; inactive = score below 0.9.
I would appreciate it if you answered using one of these outcomes: active, inactive

Observe how each entry below is paired with its result.
MOLECULE | ASSIGNED_LABEL
O=S(=O)(O)C(F)(F)C(F)(F)OC(F)(F)C(F)(F)F | inactive
CC=CC(=O)C1=C(C)C=CCC1(C)C | inactive
CCOC(=O)CCCCCCCCC(=O)OCC | inactive
C=C(C)C(N)=O | inactive
c1ccc(OCCOc2ccccc2)cc1 | inactive
COC(=O)c1ccc(C(=O)OC)cc1 | inactive
CCOC(=O)C=Cc1ccccc1 | inactive
CC(=O)OCC=C(C)CCC=C(C)CCC=C(C)C | inactive
COc1ccccc1NC(=O)CC(C)=O | inactive
CCn1cc(C(=O)O)c(=O)c2ccc(C)nc21 | inactive

Switching to the query record.
Q: Which outcome was assigned to CCC(=O)OCC=Cc1ccccc1 in this test?
Result: inactive

----------
TARGET_UNDER_TEST: Heat shock factor protein 1 (Homo sapiens)
METHOD_NOTES: ATG_HSE_CIS: Attagene CIS-FACTORIAL HepG2 Assay for human Heat Shock Transcription Factor 1 (HSE) (AID 2282953)
CONDITIONS_USED: HepG2 HSE cis-reporter, Attagene RNA transcription; actives raise or lower the signal
Protocol: ATG_CIS is a cell-based, multiplexed-readout assay that uses HepG2, a human liver cell line, with measurements taken at 24 hours after chemical dosing in a 24-well plate.ATG_HSE_CIS is one of 52 assay component(s) measured or calculated from the ATG_CIS assay. […] This assay endpoint, ATG_HSE_CIS, was analyzed with bidirectional fitting relative to DMSO as the negative control and baseline of activity. […]
Active and inactive are the calls of the source. How the source made its calls: active means hit-call score of the fitted dose curve at least 0.9, where 1 is the maximum; inactive means score below 0.9.
The categories you may choose from are 1 (yes) for active, 0 (no) for inactive

Below, 5 molecules whose answers are already recorded.
MOLECULE | TARGET_UNDER_TEST | ASSIGNED_LABEL
N=C1N=C(N)c2ccccc21 | Heat shock factor protein 1 (Homo sapiens) | 0 (no)
Brc1cc(Br)cc(Br)c1 | Heat shock factor protein 1 (Homo sapiens) | 0 (no)
C=C(C)C(=O)OCCOCCOC(=O)C(=C)C | Heat shock factor protein 1 (Homo sapiens) | 0 (no)
C=C1CC/C=C(\C)CC[C@@H]2[C@@H]1CC2(C)C | Heat shock factor protein 1 (Homo sapiens) | 0 (no)
CCCc1ccc(N)cc1 | Heat shock factor protein 1 (Homo sapiens) | 0 (no)

Q: Tell me the recorded outcome of this test for CC1=CC[C@@H]2C[C@H]1C2(C)C .
Result: 0 (no)

Q: Status in this test for CC(=O)c1ccc(C)cc1 ?
Result: 0 (no)

Q: # fetch the recorded call for C=C(C)C(N)=O here
Result: 0 (no)

Q: What was the test verdict on NS(=O)(=O)c1cc(C(=O)O)c(NCc2ccco2)cc1Cl ?
Result: 0 (no)

Q: Any idea what this test logged for CCC(C)(CCCC(C)C)OC(C)=O (stereo not drawn) ?
Result: 0 (no)

Q: Test call, this molecule: CCC(C)COC(=O)CC(C)C (stereo not drawn)
Result: 0 (no)

Q: Per the records of this test, what outcome belongs to CC/C=C\CCOC(C)OCC (stereo not drawn) ?
Result: 0 (no)

Q: Please state the recorded outcome for this molecule: CCCCCC1CCC(=O)O1 (stereo not drawn)
Result: 0 (no)

Q: Hello, I am checking results. What call was entered for CN1CCc2cccc3c2[C@H]1Cc1ccc(O)c(O)c1-3 ?
Result: 0 (no)

Q: Test call for this molecule, please: C[C@]12CC[C@@H]3c4ccc(O)cc4CC[C@H]3[C@@H]1CC[C@@H]2O
Result: 0 (no)

Q: Per the records of this test, what outcome belongs to NC(=O)c1cccnc1 ?
Result: 0 (no)

Q: Could you please tell me the result logged for NC(=O)c1cnccn1 in this assay?
Result: 0 (no)

Q: Identify the outcome logged in this assay for the molecule shown: CC1COC(=O)O1 (stereo not drawn)
Result: 0 (no)

Q: Test call for this molecule, please: CC1(C)[C@H](C=C(Cl)Cl)[C@H]1C(=O)OCc1cccc(Oc2ccccc2)c1
Result: 0 (no)

Q: What was the test verdict on COc1ccc(N)c(C)c1 ?
Result: 0 (no)

Q: What classification did OC[C@@H](O)[C@H](O)[C@@H](O)[C@@H](O)CO end up with in this test?
Result: 0 (no)

Q: I'd appreciate the recorded outcome for COc1ccc(C(C)=O)cc1 from this test.
Result: 0 (no)

Q: Hey, what did the test say about CC(=O)C1=C(C)[C@@H]2C[C@@]3(C1)[C@H](C)CC[C@H]3C2(C)C ?
Result: 1 (yes)

Q: Assay result, entry [O-]/[N+](=N\O)c1ccccc1 — outcome?
Result: 0 (no)

Q: GET /call?item= CCCCCCCC1CCCC1=O (stereo not drawn) returns the recorded outcome of this test.
Result: 0 (no)

Q: Answer briefly: the call reported for CCCCOCCOCCOCCO in this assay.
Result: 0 (no)

Q: Per the records of this test, what outcome belongs to CCCCCCC(O)CCOC(C)=O (stereo not drawn) ?
Result: 0 (no)

Q: What was the test verdict on CCOc1ccc(NC(C)=O)cc1 ?
Result: 0 (no)

Q: What outcome does the record of this test show for COc1ccc2[nH]cc(CCNC(C)=O)c2c1 ?
Result: 0 (no)
